// provenance: PubChem BioAssay AID2314

# measurement_description: Cycloheximide Counterscreen for Small Molecule Inhibitors of Shiga Toxin; note: read at 38.3 µM for the half of the compounds with a filed dose; 0% is about no effect
# experimental_setup: cell reporter, cycloheximide protein synthesis inhibition counterscreen
Out of some 300,000 compounds screened, about 37,000 (12%) were called active. Cut-off read from the data, not from the text of the source: active = max response mostly above about 13% (no sharp cut-off); inactive = mostly below about 14%. The full list was thinned out, with actives kept by preference.
Classes used: label 1 (active), label 0 (inactive)

| compound | answer_label |
| --- | --- |
| CC(=O)c1sc2nc(SCC(=O)N3CCCCC3)[nH]c(=O)c2c1C | label 0 |
| CCn1ccnc1CN(C)C(=O)c1cc(COc2ccc(-n3cncn3)cc2)on1 | label 0 |
| COc1ccc(CCNC(=O)C(=O)Nc2ccc3nc4n(c(=O)c3c2)CCCCC4)cc1OC | label 0 |
| O=C1COc2ccc(S(=O)(=O)NCCc3ccc(Cl)cc3)cc2N1 | label 0 |
| O=C(Cc1cccc2ccccc12)NNC(=O)Nc1ccc(Cl)cc1 | label 1 |
| Cc1ccc(NC(=S)NC(NC(=O)Cc2cccc3ccccc23)C(Cl)(Cl)Cl)cc1 (configuration not stated) | label 0 |
| COc1ccc(OC)c(NC(=O)C2CCCN2S(=O)(=O)c2cccc3nsnc23)c1 (configuration not stated) | label 0 |
| CC(C)c1ccc(-c2noc(C3CCCN(S(C)(=O)=O)C3)n2)cc1 (configuration not stated) | label 1 |
| COc1ccccc1OCc1ccc(C(=O)N2CCN(C)CC2)o1 | label 0 |
| COC(=O)COc1ccc2c(=O)c(Oc3ccccc3Br)coc2c1 | label 0 |
| COc1ccc(NC2CCCN(C(=O)c3ccncc3)C2)cc1 (configuration not stated) | label 0 |
| Cc1nc(N2CCOCC2)c2c(C)c(C(=O)Nc3ccc(C(F)(F)F)cc3)sc2n1 | label 0 |
| Cc1cc(NC(=O)c2cc(-c3cccs3)on2)nn1Cc1ccc(Cl)cc1 | label 0 |
| C=Cn1cc[n+](CC(=O)c2ccc(OC)c(OC)c2)c1 | label 0 |
| Cc1c(C(=O)Nc2ccccc2)sc2nc3n(c(=O)c12)CCCCC3 | label 1 |
| COc1cc(Cl)ccc1OCc1cc(C(=O)N2CC[C@@H]3CCCC[C@H]3C2)no1 | label 1 |
| O=C(Nc1ccc(N2CCOCC2)cc1)c1ccc(-c2ccccc2[N+](=O)[O-])o1 | label 0 |
| CC(=O)c1ccc(NC(=O)c2cc(-c3cccs3)on2)cc1 | label 1 |
| Cc1ccc(C)c(OCc2cc(C(=O)N3CCN(c4cnccn4)CC3)no2)c1 | label 0 |
| COc1cc(Cl)ccc1OCc1cc(C(=O)N(C)CCc2c(C)n[nH]c2C)no1 | label 0 |
| Cc1nc(N2CCN(c3ccccn3)CC2)c2c(C)c(C(=O)Nc3ccc(F)cc3)sc2n1 | label 0 |
| COc1ccc(NC(=O)N2CCCC(c3nc(-c4ccc(F)cc4)no3)C2)cc1 (configuration not stated) | label 1 |

----------
Consider the following compounds and their measured max response readings.
# measurement_description: Cycloheximide Counterscreen for Small Molecule Inhibitors of Shiga Toxin; note: read at 38.3 µM for the half of the compounds with a filed dose; 0% is about no effect
# experimental_setup: cell reporter, cycloheximide protein synthesis inhibition counterscreen; hits give high values
The campaign covered roughly 300,000 compounds. About 37,000 (12%) were called active. The sample as a whole holds a higher share of actives than the screen did.

| compound | max response / % |
| --- | --- |
| CCCCN(CC(=O)NC(C)(C)C)C(=O)C(=O)Nc1ccc2c(c1)OCCO2 | 5.6 |
| COC(=O)c1cccc(NS(C)(=O)=O)c1 | -1.63 |
| CCCCC(=O)Nc1ccc2c(c1)OCCO2 | 36.8 |
| COC(=O)c1ccc2c(C(C)(C)O)c(C(C)(C)O)[nH]c2c1 | 14.2 |
| COc1cc(CN2CCN(Cc3ccc(C)cc3)CC2)c([N+](=O)[O-])cc1OC | -2.69 |
| CCOc1ccc(NCCC(=O)c2ccc3c(c2)OCO3)cc1 | 14.4 |
| Cc1ccc(NC(=O)CSc2nn3c(=O)c(C)nnc3s2)cc1Cl | 8.05 |
| O=C(NCCCN1CCCCC1)C1CC(=O)N(CCc2ccccc2)C1 (stereo not drawn) | 3.29 |
| CC(Sc1nnc(-c2ccccc2F)n1C1CC1)C(N)=O (stereo not drawn) | -2.7 |
| Brc1ccccc1CN1CCC(Cc2ccccc2)CC1 | -0.443 |
| Cn1cccc1/C=N/NC(=O)CNc1cccc2ccccc12 | 4.6 |
| COc1ccc(CN(C)C(=S)Nc2ccc(Cl)cc2Cl)cc1 | -0.677 |
| CC(=O)NCC(=O)N(C)C(C(=O)Nc1ccc2c(c1)OCCO2)c1ccccc1 (stereo not drawn) | -1.79 |
| O=C(Nc1ccc(F)cc1)c1cccnc1N1CCOCC1 | -3.65 |
| CC(C)(C)c1ccc(Cn2nnc3c(=O)[nH]c(C4CCCN(C(=O)c5ccco5)C4)nc32)cc1 (stereo not drawn) | 4.58 |
| CC(Nc1nc(C(F)(F)F)nc2ccccc12)c1cccs1 (stereo not drawn) | -5.02 |
| Cc1cccc(/C=N/NC(=O)CNc2cccc3ccccc23)n1 | 45.5 |
| CC(=O)N1CCCc2cc(S(=O)(=O)N3CCCC(C(=O)NCc4ccc(Cl)cc4)C3)ccc21 (stereo not drawn) | -1.26 |
| O=C(Nc1ccc(N2CCOCC2)nc1)c1c(F)cccc1F | 47.6 |
| CCOC(=O)C1(CCOc2ccccc2)CCN(Cc2cc(OC)c(O)cc2Cl)CC1 | -2.51 |
| C/C(=N\NC(=O)CNc1cccc2ccccc12)c1ccc(Br)s1 | -2.1 |
| CCOc1ccc(C(=O)CCN2CCOCC2)cc1 | 9.26 |
| CCN(CC)CCNC(=O)CCCCCn1c(=O)[nH]c2cc(C(=O)OC)ccc2c1=O | -5.11 |
